Data origin, for the record: patent US12590070B2

target: Met (Homo sapiens, UniProt P08581)
Sequence (P08581 25-1390): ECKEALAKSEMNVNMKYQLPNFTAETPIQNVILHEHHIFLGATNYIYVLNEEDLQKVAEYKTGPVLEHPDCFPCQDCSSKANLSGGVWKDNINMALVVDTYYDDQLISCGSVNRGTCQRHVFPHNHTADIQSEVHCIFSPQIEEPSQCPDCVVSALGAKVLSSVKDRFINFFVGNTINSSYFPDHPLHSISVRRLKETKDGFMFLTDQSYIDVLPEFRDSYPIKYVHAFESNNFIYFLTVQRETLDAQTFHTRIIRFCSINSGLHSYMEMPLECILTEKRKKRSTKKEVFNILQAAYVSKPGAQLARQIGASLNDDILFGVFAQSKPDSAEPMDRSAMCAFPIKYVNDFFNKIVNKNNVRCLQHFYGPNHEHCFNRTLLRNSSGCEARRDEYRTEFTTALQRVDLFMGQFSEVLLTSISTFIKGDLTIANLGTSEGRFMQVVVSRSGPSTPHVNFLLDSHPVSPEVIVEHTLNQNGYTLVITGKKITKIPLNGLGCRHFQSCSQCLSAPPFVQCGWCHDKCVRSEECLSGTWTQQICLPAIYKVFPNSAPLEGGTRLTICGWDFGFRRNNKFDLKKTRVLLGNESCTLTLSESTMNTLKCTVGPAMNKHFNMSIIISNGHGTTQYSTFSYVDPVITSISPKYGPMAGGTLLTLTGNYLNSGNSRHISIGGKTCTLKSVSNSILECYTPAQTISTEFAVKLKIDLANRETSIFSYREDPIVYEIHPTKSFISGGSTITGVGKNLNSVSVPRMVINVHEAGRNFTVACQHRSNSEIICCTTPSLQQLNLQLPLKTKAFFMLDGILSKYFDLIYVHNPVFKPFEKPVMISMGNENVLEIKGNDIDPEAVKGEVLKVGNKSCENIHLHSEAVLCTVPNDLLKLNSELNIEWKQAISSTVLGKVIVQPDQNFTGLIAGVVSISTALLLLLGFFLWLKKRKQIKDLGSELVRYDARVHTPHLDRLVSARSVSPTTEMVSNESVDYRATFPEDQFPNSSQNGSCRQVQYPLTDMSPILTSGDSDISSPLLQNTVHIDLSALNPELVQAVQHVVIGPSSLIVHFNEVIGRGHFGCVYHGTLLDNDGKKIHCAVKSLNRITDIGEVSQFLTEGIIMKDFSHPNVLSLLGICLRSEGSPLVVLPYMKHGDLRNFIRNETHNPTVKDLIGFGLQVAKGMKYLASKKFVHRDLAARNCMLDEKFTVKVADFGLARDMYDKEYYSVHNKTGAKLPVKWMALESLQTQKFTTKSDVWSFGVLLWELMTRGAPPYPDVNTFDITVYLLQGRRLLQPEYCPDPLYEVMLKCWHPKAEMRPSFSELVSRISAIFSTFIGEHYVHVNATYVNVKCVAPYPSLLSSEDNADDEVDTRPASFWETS
readout_label: pIC50
# reply with the number alone; pIC50 is -log10 of concentration in mol/L

Q. Recorded pIC50 for `CNC(=O)c1cccc(C)c1Nc1nc(Nc2ccc(N3CCN([C@H]4C5CC6CC4C[C@](O)(C6)C5)CC3)cc2OC)ncc1C(F)(F)F` with Met (Homo sapiens, UniProt P08581), please?
A. 6.27

---

Test system: MDA-MB-453
experiment: 3D spheroid assay, MDA-MB-453
Format: cell-based
run_parameters: Homo sapiens; MDA-MB-453 spheroids, 96 hours; read-out: Cancer cell growth inhibitory activity (IC50)
readout_label: pIC50
Give only the number. pIC50 is defined as minus log10 of concentration in molar units.

Q. Can you look up the measured pIC50 of CNC(=O)c1cccc(C)c1Nc1nc(Nc2ccc(N3CCN([C@H]4C5CC6CC4C[C@](O)(C6)C5)CC3)cc2OC)ncc1C(F)(F)F [Compound 4] for me?
A. 5.98

---

target: InsR (Homo sapiens, UniProt P06213)
Construct: purchased Promega V9401
Sequence (P06213 28-1382): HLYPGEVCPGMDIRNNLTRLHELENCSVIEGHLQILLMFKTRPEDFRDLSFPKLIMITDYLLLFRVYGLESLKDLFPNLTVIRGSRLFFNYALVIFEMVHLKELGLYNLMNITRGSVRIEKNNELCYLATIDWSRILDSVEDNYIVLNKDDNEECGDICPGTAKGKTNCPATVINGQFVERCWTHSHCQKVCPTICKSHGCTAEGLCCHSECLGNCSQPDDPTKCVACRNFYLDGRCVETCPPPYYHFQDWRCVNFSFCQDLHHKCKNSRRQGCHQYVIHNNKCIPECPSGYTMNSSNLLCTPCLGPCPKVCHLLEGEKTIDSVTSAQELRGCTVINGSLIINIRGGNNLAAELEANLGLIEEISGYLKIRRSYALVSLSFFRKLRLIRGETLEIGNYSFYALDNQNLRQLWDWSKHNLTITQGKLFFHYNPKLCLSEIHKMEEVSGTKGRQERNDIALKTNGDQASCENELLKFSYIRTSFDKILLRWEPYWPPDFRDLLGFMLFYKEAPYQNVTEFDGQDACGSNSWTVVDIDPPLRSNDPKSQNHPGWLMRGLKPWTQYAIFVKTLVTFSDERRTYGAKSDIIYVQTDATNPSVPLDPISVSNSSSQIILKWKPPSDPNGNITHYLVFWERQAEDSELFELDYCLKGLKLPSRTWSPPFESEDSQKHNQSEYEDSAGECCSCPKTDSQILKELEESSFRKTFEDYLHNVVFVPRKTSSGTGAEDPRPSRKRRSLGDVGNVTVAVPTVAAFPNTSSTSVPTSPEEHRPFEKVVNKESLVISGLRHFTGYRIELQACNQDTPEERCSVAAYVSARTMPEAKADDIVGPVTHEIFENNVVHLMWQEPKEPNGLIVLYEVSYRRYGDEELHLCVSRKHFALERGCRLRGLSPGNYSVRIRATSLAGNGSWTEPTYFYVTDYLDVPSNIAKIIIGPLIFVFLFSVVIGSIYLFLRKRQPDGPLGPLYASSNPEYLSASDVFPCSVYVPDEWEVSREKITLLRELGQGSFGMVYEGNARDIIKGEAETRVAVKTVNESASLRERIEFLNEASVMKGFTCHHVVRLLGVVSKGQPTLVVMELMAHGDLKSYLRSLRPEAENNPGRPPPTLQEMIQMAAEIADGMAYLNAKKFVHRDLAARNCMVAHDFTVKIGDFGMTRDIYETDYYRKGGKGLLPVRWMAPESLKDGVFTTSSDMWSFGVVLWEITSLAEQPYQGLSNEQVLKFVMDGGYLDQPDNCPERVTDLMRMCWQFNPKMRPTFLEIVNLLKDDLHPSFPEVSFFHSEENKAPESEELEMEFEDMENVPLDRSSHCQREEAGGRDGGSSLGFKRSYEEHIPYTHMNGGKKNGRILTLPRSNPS
experiment: ADP-Glo Kinase Assay, InsR
Format: biochemical
run_parameters: ADP-Glo Kinase Assay Kit
# pIC50 annotations
Expect pIC50 as a plain number equal to -log10 of the molar concentration.

test_smiles=COc1cc(C2CCN([C@H]3C4CC5CC3C[C@](O)(C5)C4)CC2)ccc1Nc1ncc(C(F)(F)F)c(Nc2c(C)cccc2C(N)=O)n1 readout_label=pIC50 data_value=5.84

Q. Please give the measured pIC50 for this compound: `CNC(=O)c1cccc(C)c1Nc1nc(Nc2ccc(N3CCN([C@H]4C5CC6CC4C[C@](O)(C6)C5)CC3)cc2OC)ncc1C(F)(F)F`
A. 5.25

Q. Give its pIC50 value. Item: `CNC(=O)c1cccc(C)c1Nc1nc(Nc2ccc(NC3CCN([C@H]4C5CC6CC4C[C@](O)(C6)C5)CC3)cc2OC)ncc1C(F)(F)F`
A. 5.21

---

target: FAK (Homo sapiens, UniProt Q05397)
Sequence (Q05397 whole entry): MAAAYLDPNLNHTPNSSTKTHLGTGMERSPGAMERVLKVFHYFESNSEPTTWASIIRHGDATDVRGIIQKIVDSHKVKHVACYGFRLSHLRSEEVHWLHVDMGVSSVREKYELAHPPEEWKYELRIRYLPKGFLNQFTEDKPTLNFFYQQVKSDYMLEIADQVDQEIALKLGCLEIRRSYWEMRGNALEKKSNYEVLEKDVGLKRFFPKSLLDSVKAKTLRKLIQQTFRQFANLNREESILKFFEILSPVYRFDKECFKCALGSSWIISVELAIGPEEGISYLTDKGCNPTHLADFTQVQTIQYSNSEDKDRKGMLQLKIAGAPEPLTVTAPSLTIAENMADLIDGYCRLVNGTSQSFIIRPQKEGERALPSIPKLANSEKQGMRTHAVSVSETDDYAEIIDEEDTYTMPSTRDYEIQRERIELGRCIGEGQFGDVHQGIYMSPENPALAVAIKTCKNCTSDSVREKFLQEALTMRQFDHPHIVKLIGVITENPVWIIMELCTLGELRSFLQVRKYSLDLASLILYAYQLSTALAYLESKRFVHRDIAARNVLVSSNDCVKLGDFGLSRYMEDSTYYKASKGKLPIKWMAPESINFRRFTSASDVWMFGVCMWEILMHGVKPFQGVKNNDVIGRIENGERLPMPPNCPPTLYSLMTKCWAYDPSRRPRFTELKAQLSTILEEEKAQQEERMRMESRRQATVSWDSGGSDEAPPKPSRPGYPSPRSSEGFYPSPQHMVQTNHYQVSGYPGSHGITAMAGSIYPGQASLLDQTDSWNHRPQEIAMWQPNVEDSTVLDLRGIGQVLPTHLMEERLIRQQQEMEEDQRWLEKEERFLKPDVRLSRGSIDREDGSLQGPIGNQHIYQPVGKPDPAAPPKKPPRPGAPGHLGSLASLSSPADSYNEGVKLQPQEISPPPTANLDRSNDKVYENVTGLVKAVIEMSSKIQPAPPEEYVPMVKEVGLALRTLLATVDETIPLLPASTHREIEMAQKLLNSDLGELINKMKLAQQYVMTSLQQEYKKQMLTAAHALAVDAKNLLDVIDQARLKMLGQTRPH
experiment: FAK [pY397] ELISA in MDA-MB-231 cells
Assay type: cell-based
Parameters: endogenous in cells; host or cells: MDA-MB-231
run_parameters: MDA-MB-231, treated for one hour, Table 2; read-out: FAK inhibitory activity (IC50)
Below: a set of entries, each annotated with reported IC50.
The figure you give is taken to be in µM; do not add the unit.

molecule="CNC(=O)c1cccc(C)c1Nc1nc(Nc2ccc(OC3C4CC5CC3CC(C(=O)N3CCN(C)CC3)(C5)C4)cc2OC)ncc1C(F)(F)F (centres unmarked)" target="FAK (Homo sapiens, UniProt Q05397)" readout_label=IC50 data_value=0.153
molecule="CNC(=O)c1cccc(C)c1Nc1nc(Nc2ccc(N3CCN(C4C5CC6CC(C5)CC4C6)CC3)cc2OC)ncc1C(F)(F)F (centres unmarked)" target="FAK (Homo sapiens, UniProt Q05397)" readout_label=IC50 data_value=0.092

Q. Query for FAK (Homo sapiens, UniProt Q05397): what IC50 does the record show for CNC(=O)c1cccc(C)c1Nc1nc(Nc2ccc(OC34CC5CC(C3)C(O)C(C5)C4)cc2OC)ncc1C(F)(F)F (centres unmarked) ?
A. 0.118

Q. I'm curious: which IC50 was measured for `CNC(=O)c1cccc(C)c1Nc1nc(Nc2ccc(N[C@H]3C4CC5CC3C[C@](O)(C5)C4)cc2OC)ncc1C(F)(F)F` tested on FAK (Homo sapiens, UniProt Q05397)?
A. 0.083

Q. Form entry - test system: FAK (Homo sapiens, UniProt Q05397); read-out: IC50; molecule: `CNC(=O)c1cccc(C)c1Nc1nc(Nc2ccc(NC3CCN([C@H]4C5CC6CC4C[C@@](O)(C6)C5)CC3)cc2OC)ncc1C(F)(F)F`
A. 0.121
